# maps each entry to its IC50
- System tested: CDK2/CycE (Homo sapiens, UniProt P24941)
- Construct: GST
- Run description: CDK2 HTRF Assay (assay 4)
- Protocol conditions: pIC50 = −log IC50 in molar concentration; 10 μM ATP

{"columns": ["Line notation", "IC50"],
 "data": [
  ["O=S1(=O)NCCCNc2nc(ncc2C#CCNS(=O)(=O)c2cccc(Cl)c2Cl)Nc2cccc1c2", "1 to 10 µM"],
  ["O=C(NCC#Cc1cnc2nc1NCCCNS(=O)(=O)c1cccc(c1)N2)Nc1cccc(C(F)(F)F)c1", "> 10 µM"],
  ["O=C(NCCC#Cc1cnc2nc1NCCCNS(=O)(=O)c1cccc(c1)N2)Nc1ccccc1", "1 to 10 µM"],
  ["O=C(NCC#Cc1cnc2nc1NCCCNS(=O)(=O)c1cccc(c1)N2)NCc1ccccc1", "> 10 µM"],
  ["Cc1ccc(F)c(S(=O)(=O)NCCC#Cc2cnc3nc2NCCCNS(=O)(=O)c2cccc(c2)N3)c1", "> 10 µM"]
]}
